The origin of these recorded values is patent US20160243190A1.

experiment: Population PK model for telavancin from Phase 1, 2 and 3 plasma concentrations; type: in vivo; details: both sexes, human, intravenous, final combined population PK model, read-out: CL, population estimate ± SE (converted)
measuredAttribute: clearance
# output: number + unit

Form: compound = CCCCCCCCCCNCCNC1(C)CC(OC2C(Oc3c4cc5cc3Oc3ccc(cc3Cl)[C@@H](O)[C@@H](NC(=O)[C@@H](CC(C)C)NC)C(=O)N[C@@H](CC(N)=O)C(=O)N[C@H]5C(=O)N[C@H]3C(=O)N[C@H](C(=O)N[C@H](C(=O)O)c5cc(O)c(CNCP(=O)(O)O)c(O)c5-c5cc3ccc5O)[C@H](O)c3ccc(c(Cl)c3)O4)OC(CO)C(O)C2O)OC(C)C1O (stereo partly shown) [telavancin] ; clearance = 19.2 mL/min

---

Assay: Individually predicted steady state exposure in Phase 3 subjects with PK samples
Assay type: in vivo
Settings: human, plasma, intravenous, cSSSI subjects, n=383, read-out: AUC0-24, mean ± SD (range)
Text: This analysis was designed to describe the relationship between exposure and response in patients treated with telavancin. The predicted telavancin PK profiles for each subject were generated using the individually estimated PK parameters determined during the population PK analysis based on the administered dose as recorded in the dataset. […]
measuredAttribute: AUC0-24 at steady state (µg·h/mL)
Give just the number in µg·h/mL; leave the unit off.

Form: compound = CCCCCCCCCCNCCNC1(C)CC(OC2C(Oc3c4cc5cc3Oc3ccc(cc3Cl)[C@@H](O)[C@@H](NC(=O)[C@@H](CC(C)C)NC)C(=O)N[C@@H](CC(N)=O)C(=O)N[C@H]5C(=O)N[C@H]3C(=O)N[C@H](C(=O)N[C@H](C(=O)O)c5cc(O)c(CNCP(=O)(O)O)c(O)c5-c5cc3ccc5O)[C@H](O)c3ccc(c(Cl)c3)O4)OC(CO)C(O)C2O)OC(C)C1O (stereo partly shown) ; AUC0-24 at steady state = 671

---

test: Individually predicted steady state exposure in Phase 3 subjects with PK samples; assay type: in vivo; conditions: human, plasma, intravenous, Total, n=579, read-out: AUC0-24, mean ± SD (range)
measuredAttribute: AUC0-24 at steady state
# output: number + unit

Form: compound = CCCCCCCCCCNCCNC1(C)CC(OC2C(Oc3c4cc5cc3Oc3ccc(cc3Cl)[C@@H](O)[C@@H](NC(=O)[C@@H](CC(C)C)NC)C(=O)N[C@@H](CC(N)=O)C(=O)N[C@H]5C(=O)N[C@H]3C(=O)N[C@H](C(=O)N[C@H](C(=O)O)c5cc(O)c(CNCP(=O)(O)O)c(O)c5-c5cc3ccc5O)[C@H](O)c3ccc(c(Cl)c3)O4)OC(CO)C(O)C2O)OC(C)C1O (stereo partly shown) ; AUC0-24 at steady state = 671 µg·h/mL

---

experiment: Individually predicted steady state exposure in Phase 3 subjects with PK samples; format: in vivo; settings: human, plasma, intravenous, HABP/VABP subjects, n=196, read-out: AUC0-24, mean ± SD (range)
measuredAttribute: AUC0-24 at steady state (µg·h/mL)
Give just the number in µg·h/mL; leave the unit off.

Form: compound = CCCCCCCCCCNCCNC1(C)CC(OC2C(Oc3c4cc5cc3Oc3ccc(cc3Cl)[C@@H](O)[C@@H](NC(=O)[C@@H](CC(C)C)NC)C(=O)N[C@@H](CC(N)=O)C(=O)N[C@H]5C(=O)N[C@H]3C(=O)N[C@H](C(=O)N[C@H](C(=O)O)c5cc(O)c(CNCP(=O)(O)O)c(O)c5-c5cc3ccc5O)[C@H](O)c3ccc(c(Cl)c3)O4)OC(CO)C(O)C2O)OC(C)C1O (stereo partly shown) [telavancin] ; AUC0-24 at steady state = 670
